Molecular target: GRK2 (Homo sapiens)
Assay: GRK2 Degradation Assay and Western Blot in PAXF1657 cells
Assay type: cell-based
Design: endogenous in cells; host or cells: PAXF1657
Conditions: Conc 1 uM; read-out: Degradation Assay - 3 point: Degradation (%)
Protocol: General Protocol: Degradation Assay and Western Blot. PAXF1657 cells were plated in 6-well, 24-well plates or 60 mm tissue culture treated dishes and incubated at 37° C. until 70% confluency. […] Samples were mixed with NuPAGE LDS sample buffer and NuPAGE sample reducing buffer (3×), vortexed and heated at 95° C. for 10 min, and then analyzed by SDS-PAGE (NuPAGE 4-12%) followed by transfer to nitrocellulose membrane. […]
Structures can show the parent of a compound that is named as a salt.
Measurement kind: inhibition at 1 µM (%)

[1] C[C@@H](NC(=O)c1cccc(NCc2nnc(-c3ccncn3)n2C)c1)c1cccc(OCCN2CCN(c3ccc4c(c3)CN(C3CCC(=O)NC3=O)C4=O)CC2)c1 (some centres unmarked)
[2] C[C@@H](NC(=O)c1cccc(NCc2nnc(-c3ccncn3)n2C)c1)c1ccc(OCCN2CCN(c3ccc4c(c3)CN(C3CCC(=O)NC3=O)C4=O)CC2)cc1 (some centres unmarked) [Compound D174, hydrochloride]
[3] C[C@@H](NC(=O)c1cccc(NCc2nnc(-c3ccncn3)n2C)c1)c1cccc(OCCCCCCOCCN2CCN(c3ccc4c(c3)CN(C3CCC(=O)NC3=O)C4=O)CC2)c1 (some centres unmarked)
**Query** Order the 3 compounds from highest to lowest inhibition at 1 µM. Form entry: ranked labels (order as requested).
**Result** 3, 2, 1
(3: 94.1%, 2: 50.2%, 1: 8.53%)

###

molecular target: GRK2 (Homo sapiens, UniProt P25098); test: GRK2 Degradation Assay and Western Blot in PAXF1657 cells; type: cell-based; set-up: endogenous in cells; host or cells: PAXF1657; conditions: Conc 3 uM; read-out: Degradation Assay - 3 point: Degradation (%)
Sequence (P25098 whole entry): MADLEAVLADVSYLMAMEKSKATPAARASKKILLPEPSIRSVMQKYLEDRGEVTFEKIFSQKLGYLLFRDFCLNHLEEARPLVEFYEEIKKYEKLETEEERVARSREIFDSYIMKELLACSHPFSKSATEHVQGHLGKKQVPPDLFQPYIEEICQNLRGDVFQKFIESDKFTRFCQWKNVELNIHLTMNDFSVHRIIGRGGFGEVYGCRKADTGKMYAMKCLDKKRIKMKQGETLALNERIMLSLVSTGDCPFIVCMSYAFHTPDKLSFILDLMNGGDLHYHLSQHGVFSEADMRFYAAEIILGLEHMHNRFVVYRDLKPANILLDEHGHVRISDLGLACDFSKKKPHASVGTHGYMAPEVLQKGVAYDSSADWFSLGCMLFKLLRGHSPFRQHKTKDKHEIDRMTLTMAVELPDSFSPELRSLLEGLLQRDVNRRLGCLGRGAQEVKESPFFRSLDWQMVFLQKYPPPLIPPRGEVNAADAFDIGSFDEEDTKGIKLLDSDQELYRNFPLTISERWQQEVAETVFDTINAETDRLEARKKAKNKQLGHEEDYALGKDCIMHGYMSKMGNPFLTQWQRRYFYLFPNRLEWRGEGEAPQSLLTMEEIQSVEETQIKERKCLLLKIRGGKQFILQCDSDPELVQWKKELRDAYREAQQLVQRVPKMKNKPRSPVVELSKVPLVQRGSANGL
Counter-ions that a name gives are not always drawn.
Measurement kind: inhibition at 3 µM (%)

Would you please look over these solved cases?
Molecule	Measurement kind	Reported value
Cc1ncsc1-c1ccc([C@H](C)NC(=O)[C@@H]2C[C@@H](O)CN2C(=O)[C@@H](NC(=O)COCCCOCCCCCOc2cccc([C@@H](C)NC(=O)c3cccc(NCc4nnc(-c5ccncn5)n4C)c3)c2)C(C)(C)C)cc1 [Compound D169]	inhibition at 3 µM	24
C[C@@H](NC(=O)c1cccc(NCc2nnc(-c3ccncn3)n2C)c1)c1cccc(OCCCCCCOCCOCC(=O)Nc2cccc3c2CN(C2CCC(=O)NC2=O)C3=O)c1 (stereo partly shown) [Compound D170]	inhibition at 3 µM	81.5
C[C@@H](NC(=O)c1cccc(NCc2nnc(-c3ccncn3)n2C)c1)c1cccc(OCCCCCCn2cc(CCCC(=O)Nc3cccc4c3CN(C3CCC(=O)NC3=O)C4=O)nn2)c1 (stereo partly shown) [Compound D165]	inhibition at 3 µM	70.1
C[C@@H](NC(=O)c1cccc(NCc2nnc(-c3ccncn3)n2C)c1)c1cccc(C(=O)N2CC(N3CCN(c4ccc5c(c4)CN(C4CCC(=O)NC4=O)C5=O)CC3)C2)c1 (stereo partly shown) [Compound D172]	inhibition at 3 µM	-15.9
Cn1c(CNc2cccc(C(=O)NCc3ccc(OCCCCCOCCCOCC(=O)Nc4cccc5c4CN(C4CCC(=O)NC4=O)C5=O)cc3)c2)nnc1-c1ccncn1 (stereo not shown) [Compound D167]	inhibition at 3 µM	55.2
C[C@@H](NC(=O)c1cccc(NCc2nnc(-c3ccncn3)n2C)c1)c1cccc(OCCCCCCOCCOCC(=O)N2CCN(c3ccc4c(c3)CN(C3CCC(=O)NC3=O)C4=O)CC2)c1 (stereo partly shown) [Compound D138, hydrochloride]	inhibition at 3 µM	95
Cn1c(CNc2cccc(C(=O)N[C@H]3CCOc4ccc(OCCCCCOCCCOCC(=O)Nc5cccc6c5CN(C5CCC(=O)NC5=O)C6=O)cc43)c2)nnc1-c1ccncn1 (stereo partly shown) [Compound D155]	inhibition at 3 µM	-21.9
C[C@H](NC(=O)c1cccc(NCc2nnc(-c3ccncn3)n2C)c1)c1ccc(OCCCCCOCCCOCC(=O)Nc2cccc3c2CN(C2CCC(=O)NC2=O)C3=O)cc1 (stereo partly shown) [Compound D150]	inhibition at 3 µM	40

[A] C[C@@H](NC(=O)c1cccc(NCc2nnc(-c3ccncn3)n2C)c1)c1cccc(OCCCCCOCCCOCCOc2cccc3c2CN(C2CCC(=O)NC2=O)C3=O)c1 (stereo partly shown) [Compound D198]
[B] C[C@@H](NC(=O)c1cccc(NCc2nnc(-c3ccncn3)n2C)c1)c1cccc(OCCN2CCN(c3ccc4c(c3)CN(C3CCC(=O)NC3=O)C4=O)CC2)c1 (stereo partly shown) [Compound D128]
**Query** Endpoint returns whichever of A and B has the numerically higher inhibition at 3 µM. Output the label that corresponds to your choice.
**Result** A

The origin of these recorded values is patent US20240174637A1.
